biological target: Replicative DNA helicase DnaB (Mycobacterium tuberculosis, UniProt P9WMR3); assay: DnaB intein splicing inhibitors, dose response, biochemical, cell-free fluorescence (AID 449749); format: functional
Sequence (P9WMR3 1-399, added parts left off): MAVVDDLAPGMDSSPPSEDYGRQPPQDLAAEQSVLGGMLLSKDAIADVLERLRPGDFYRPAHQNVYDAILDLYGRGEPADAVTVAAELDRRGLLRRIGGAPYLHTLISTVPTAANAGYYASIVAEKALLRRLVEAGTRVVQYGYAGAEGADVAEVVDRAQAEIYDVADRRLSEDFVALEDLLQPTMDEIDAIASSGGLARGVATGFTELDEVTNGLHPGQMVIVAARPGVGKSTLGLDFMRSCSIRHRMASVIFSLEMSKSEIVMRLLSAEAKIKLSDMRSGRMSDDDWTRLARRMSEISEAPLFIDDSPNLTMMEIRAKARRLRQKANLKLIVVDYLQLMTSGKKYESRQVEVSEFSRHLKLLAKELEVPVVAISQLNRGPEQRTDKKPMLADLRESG
Active and inactive are the calls of the source.
// allowed return values: yes for active, no for inactive

{"compound": "CCCCCCCCCCC[N+](C)(C)CC/C=C1/c2ccccc2Sc2ccc(Cl)cc21", "system": "Replicative DNA helicase DnaB (Mycobacterium tuberculosis, UniProt P9WMR3)", "assignedCategory": "no"}
{"compound": "COc1ccc(-c2csc(Nc3ccc(O)cc3)n2)cc1", "system": "Replicative DNA helicase DnaB (Mycobacterium tuberculosis, UniProt P9WMR3)", "assignedCategory": "yes"}
{"compound": "Cc1oc2cc([N+](=O)[O-])c(O)c([N+](=O)[O-])c2c1C(=O)c1ccc(Br)cc1", "system": "Replicative DNA helicase DnaB (Mycobacterium tuberculosis, UniProt P9WMR3)", "assignedCategory": "yes"}
{"compound": "O=c1cc(-c2ccc(Cl)cc2)[nH][nH]1", "system": "Replicative DNA helicase DnaB (Mycobacterium tuberculosis, UniProt P9WMR3)", "assignedCategory": "yes"}
{"compound": "COc1ccc(C(C(=O)NC2CCCCC2)N(C(=O)CCl)c2ccc(Cl)cc2)cc1 (stereo unspecified)", "system": "Replicative DNA helicase DnaB (Mycobacterium tuberculosis, UniProt P9WMR3)", "assignedCategory": "yes"}

Shifting focus to the compound that follows.
Which outcome was assigned to O=S(=O)(c1ccc(Cl)c(Cl)c1)c1snnc1-c1ccccc1 in this test?
yes

---

molecular target: Ubiquitin-conjugating enzyme E2 N (Homo sapiens); assay type: functional;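 also: Dose-response confirmation in a TR-FRET assay detecting UBC13-driven polyubiquitin chain formation, inhibition measured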
Sequence (P61088 whole entry): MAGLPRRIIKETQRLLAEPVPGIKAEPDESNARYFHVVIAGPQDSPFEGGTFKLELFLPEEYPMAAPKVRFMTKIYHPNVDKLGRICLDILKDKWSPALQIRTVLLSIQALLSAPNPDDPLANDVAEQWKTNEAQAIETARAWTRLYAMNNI
The source made the active and inactive calls.
Form entry, call: pick from 1 (yes) = active, 0 (no) = inactive

Here are 5 molecules together with their reported answers.
{"molecule": "COc1ccccc1-c1oc2ccccc2c1C#CC1(N)CCCCC1", "assignedCategory": "0 (no)"}
{"molecule": "CN(C)CCCN(C(=O)c1ccc(C(=O)c2ccccc2)cc1)c1nc2cc3c(cc2s1)OCO3", "assignedCategory": "0 (no)"}
{"molecule": "CCc1ccc(OCC(=O)NNC(=O)c2cnccn2)c(Br)c1", "assignedCategory": "0 (no)"}
{"molecule": "CCCCN(C(=O)c1ccco1)c1nnc(-c2cc(OC)c(OC)c(OC)c2)s1", "assignedCategory": "1 (yes)"}
{"molecule": "CCCCCCCCCCC[N+](C)(C)CC/C=C1/c2ccccc2Sc2ccc(Cl)cc21", "assignedCategory": "1 (yes)"}

Now turn to the next molecule.
Can you look up the reported call for COc1ccc(-c2cc(-c3cccs3)nc(OC)c2C#N)cc1OC for me?
0 (no)

---

Entries with their measured AC50, system Cytochrome P450 3A4 (Homo sapiens):

{"molecule": "C[C@]1(CC(=O)O)O[C@H]2CCCCC[C@H]2O1.NCc1ccccc1", "system": "Cytochrome P450 3A4 (Homo sapiens)", "AC50": "0.251 µM (inconclusive)"}
{"molecule": "CC(=O)Nc1ccc(Nc2ncnc3c2cnn3-c2ccccc2)cc1", "system": "Cytochrome P450 3A4 (Homo sapiens)", "AC50": "35.5 µM (inconclusive)"}
{"molecule": "O=C(Nc1ccc(Br)cc1)c1ccc(CSC2=NCCS2)cc1", "system": "Cytochrome P450 3A4 (Homo sapiens)", "AC50": "3.55 µM (inconclusive)"}
{"molecule": "N#Cc1nc(-c2ccc(F)cc2)oc1N1CCCC1", "system": "Cytochrome P450 3A4 (Homo sapiens)", "AC50": "14.1 µM (inconclusive)"}
{"molecule": "CN(C)CCCc1cc(C(=O)Nc2ccc(-c3ccncc3)cc2)ccc1O", "system": "Cytochrome P450 3A4 (Homo sapiens)", "AC50": "1.26 µM (inconclusive)"}

Quick check: AC50 on Cytochrome P450 3A4 (Homo sapiens), item COc1cccc(-c2nnc3n2N=C(C(C)(C)C)CS3)c1 ?
25.1 µM (inconclusive)

Recorded AC50 for O=C(Nc1ccccc1C(=O)NCC1CCCO1)c1ccc(Cl)cc1Cl (stereo not given) with Cytochrome P450 3A4 (Homo sapiens), please?
4.47 µM (inconclusive)

Please tell me: AC50 of CC(C)CC(=O)Nc1sc2c(c1C#N)CC(C)(C)NC2(C)C , system Cytochrome P450 3A4 (Homo sapiens)?
14.1 µM (inconclusive)

Observed AC50 on Cytochrome P450 3A4 (Homo sapiens) for O=C(C1CCC(=O)N1Cc1ccccc1Cl)N1CCN(c2cccc(Cl)c2)CC1 (stereo not given) , please.
Sequence (P08684 whole entry): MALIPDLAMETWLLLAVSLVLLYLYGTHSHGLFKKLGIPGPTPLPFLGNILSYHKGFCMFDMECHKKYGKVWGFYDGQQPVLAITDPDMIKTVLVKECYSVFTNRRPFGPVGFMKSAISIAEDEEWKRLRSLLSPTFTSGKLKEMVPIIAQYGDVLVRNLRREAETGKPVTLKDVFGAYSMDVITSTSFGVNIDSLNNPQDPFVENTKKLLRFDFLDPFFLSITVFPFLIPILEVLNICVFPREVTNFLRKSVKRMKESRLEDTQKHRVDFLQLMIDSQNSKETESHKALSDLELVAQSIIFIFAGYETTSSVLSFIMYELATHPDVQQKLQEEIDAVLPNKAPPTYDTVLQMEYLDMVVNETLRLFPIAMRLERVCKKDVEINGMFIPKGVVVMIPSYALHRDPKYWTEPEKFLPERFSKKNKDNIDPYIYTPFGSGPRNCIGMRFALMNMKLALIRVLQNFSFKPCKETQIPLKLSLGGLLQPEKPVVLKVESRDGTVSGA
0.0355 µM (inconclusive)

Test system Cytochrome P450 3A4 (Homo sapiens); read-out AC50; what value for CC(=O)Nc1cc(C(F)(F)F)ccc1Oc1cccc(Br)c1 ?
12.6 µM (inconclusive)

Enter reported AC50 observed with Cytochrome P450 3A4 (Homo sapiens) for CCOc1cc(/C=N/NC(=O)c2cc(C)[nH]n2)ccc1OC(=O)c1ccc([N+](=O)[O-])cc1
22.4 µM (inconclusive)

Lookup: AC50 / Cytochrome P450 3A4 (Homo sapiens) / CCS(=O)(=O)c1ccc2oc(Nc3cc(C)cc(C)c3)nc2c1
28.2 µM (inconclusive)

Form field: AC50 recorded for O=c1c2c(-c3ccc(Cl)cc3)csc2nc2n1CCC2 with Cytochrome P450 3A4 (Homo sapiens) (enter value)
12.6 µM (inconclusive)

Notebook: pull reported AC50 for Cytochrome P450 3A4 (Homo sapiens), entry C=C1C(=O)O[C@@H]2[C@H]3O[C@]3(C)CCC=C(C)CC[C@@H]12
10 µM (inconclusive)

Any idea what AC50 came out for COc1ccc(-c2cc(C(F)(F)F)nc(N3CCCCC3)n2)cc1OC on Cytochrome P450 3A4 (Homo sapiens)?
25.1 µM (inconclusive)

Give the reported AC50 for O=C(Cc1ncc(C(F)(F)F)cc1Cl)Nc1cccc(Br)c1 (system: Cytochrome P450 3A4 (Homo sapiens)).
14.1 µM (inconclusive)

Query the reported AC50 for Cytochrome P450 3A4 (Homo sapiens); item: CCCC/C=C/C(NC(=O)c1ccc(C(F)(F)F)cc1)c1ccccc1 (stereo not given)
10 µM (inconclusive)

Observed AC50 on Cytochrome P450 3A4 (Homo sapiens) for COc1ccc(NC(=O)N2CC3(CCN(S(=O)(=O)c4ccccc4)CC3)C2)cc1 , please.
15.8 µM (inconclusive)

What AC50 appears in the records for this molecule with Cytochrome P450 3A4 (Homo sapiens)? O=C(Nc1ccccc1)N1CCCC2(CCN(C(=O)c3cnccn3)CC2)C1
25.1 µM (inconclusive)

API: value(readout=AC50, system=Cytochrome P450 3A4 (Homo sapiens)) for record O=C1CN(c2nc(-c3ccccc3)c3cc(Br)ccc3n2)c2ccccc2N1;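 also: CYP3A4 tested as one member of a cytochrome P450 panel screen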
7.08 µM (inconclusive)

---

Listed next: entries and their corresponding IC50.
molecular target: Small ubiquitin-related modifier 1 (Homo sapiens, UniProt P63165); experiment: SUMO1 protein interaction blockers, potency – biochemical, fluorescence polarization, uHTS hits, dose response (AID 624382); type: functional; settings: read-out: IC50_Mean
Sequence (P63165 whole entry): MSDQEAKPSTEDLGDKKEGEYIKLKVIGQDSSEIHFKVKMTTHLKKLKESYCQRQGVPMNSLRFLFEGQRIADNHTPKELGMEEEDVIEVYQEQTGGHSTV
Calls of active or inactive are those of the source.

Some solved cases for reference:
{"mol": "Nc1cccc2c(O)cc(S(=O)(=O)O)cc12", "system": "Small ubiquitin-related modifier 1 (Homo sapiens, UniProt P63165)", "IC50": "> 66.6 µM (inactive)"}
{"mol": "Nc1cccc2[nH]c(C(F)(F)F)nc12", "system": "Small ubiquitin-related modifier 1 (Homo sapiens, UniProt P63165)", "IC50": "26.8 µM (inactive)"}
{"mol": "Cc1ccc(Cn2c(CCNc3nc(-c4ccc(C)cc4)cs3)nc3cc(C(=O)NCCCO)ccc32)cc1", "system": "Small ubiquitin-related modifier 1 (Homo sapiens, UniProt P63165)", "IC50": "> 66.6 µM (inactive)"}

Provide value of IC50 for this record tested with Small ubiquitin-related modifier 1 (Homo sapiens, UniProt P63165): CC(C)(C)OC(=O)N1CCC(c2cc(O)n3ncc(C(=O)Nc4ccc(F)c(Cl)c4)c3n2)CC1
> 66.6 µM (inactive)

---

target: Short transient receptor potential channel 4 (Mus musculus); test: block of DAMGO-driven TRPC4 calcium entry – cell-based, HEK293 TRPC4/mu-opioid, Fluo-4 calcium, dose response (AID 434942); type: functional;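 also: potency of inhibitors blocking the TRPC4 calcium response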
Sequence (Q9QUQ5 whole entry): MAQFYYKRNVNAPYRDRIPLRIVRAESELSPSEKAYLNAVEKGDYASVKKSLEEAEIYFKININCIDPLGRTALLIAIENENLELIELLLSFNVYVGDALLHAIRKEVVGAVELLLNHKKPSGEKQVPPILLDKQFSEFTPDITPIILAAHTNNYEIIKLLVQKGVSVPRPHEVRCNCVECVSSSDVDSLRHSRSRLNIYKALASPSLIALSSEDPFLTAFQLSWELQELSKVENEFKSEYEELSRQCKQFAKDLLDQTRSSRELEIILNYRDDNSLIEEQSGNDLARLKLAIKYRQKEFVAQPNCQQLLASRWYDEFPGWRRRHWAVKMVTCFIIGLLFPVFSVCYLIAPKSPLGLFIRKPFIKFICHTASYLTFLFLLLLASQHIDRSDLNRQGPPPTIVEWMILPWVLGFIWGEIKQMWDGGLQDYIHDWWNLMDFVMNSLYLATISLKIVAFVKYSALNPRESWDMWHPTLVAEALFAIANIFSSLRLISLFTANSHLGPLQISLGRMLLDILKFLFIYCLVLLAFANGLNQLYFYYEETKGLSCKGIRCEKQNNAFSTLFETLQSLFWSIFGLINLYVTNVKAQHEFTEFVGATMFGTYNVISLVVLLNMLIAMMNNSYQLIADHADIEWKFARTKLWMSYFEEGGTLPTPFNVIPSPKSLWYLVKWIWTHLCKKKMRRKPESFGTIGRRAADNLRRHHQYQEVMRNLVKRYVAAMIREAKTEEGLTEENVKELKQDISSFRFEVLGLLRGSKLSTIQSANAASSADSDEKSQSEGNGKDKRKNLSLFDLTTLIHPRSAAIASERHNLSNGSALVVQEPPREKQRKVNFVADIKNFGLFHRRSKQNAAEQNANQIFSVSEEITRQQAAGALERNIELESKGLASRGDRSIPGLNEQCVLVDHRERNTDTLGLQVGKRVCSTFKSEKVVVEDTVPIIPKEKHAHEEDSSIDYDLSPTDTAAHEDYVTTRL
Activity calls are given as the source filed them.
Parameter: EC50. Scope: all listed entries.

{"compound": "COc1ccc(C)cc1N(C(=O)c1snc(C(N)=O)c1N)C(C(=O)NC1CCCCC1)c1ccc(C)o1 (stereo unspecified)", "system": "Short transient receptor potential channel 4 (Mus musculus)", "result": "0.211 µM (active)"}
{"compound": "CC(=O)C1=C(O)C(=O)N(Cc2ccccc2)C1c1ccc([N+](=O)[O-])cc1 (stereo unspecified)", "system": "Short transient receptor potential channel 4 (Mus musculus)", "result": "1.19 µM (active)"}
{"compound": "CC(=O)Nc1ccc(S(=O)(=O)Nc2nc3ccc(C)cc3s2)cc1", "system": "Short transient receptor potential channel 4 (Mus musculus)", "result": "3.76 µM (active)"}
{"compound": "Cc1ccc2nc(C)cc(Nc3ccc4c(c3)OCCO4)c2c1", "system": "Short transient receptor potential channel 4 (Mus musculus)", "result": "2.99 µM (active)"}
{"compound": "CNc1nc(NCc2ccccc2)c2ccccc2n1", "system": "Short transient receptor potential channel 4 (Mus musculus)", "result": "1.19 µM (active)"}

Item under review: Brc1cc2c(cc1COc1ccc(-c3nn[nH]n3)cc1)OCO2 . Reported EC50?
5.31 µM (active)
